Field: pIC50. Provide a value for each of the binders that follow.
- MEASURED ON: T1, human IL4Rα expressed on 293F-IL4Rα cells (human, UniProt P24394 26-825)
- T1 construct: whole, on cells; also called cell surface human IL4Rα
- ASSAY PROCEDURE: flow cytometry on 293F-IL4Rα cells, blocked ligand biotin human IL4
Answers are plain numbers, as −log10 of the molar value.

mouse antibody B1D2F7D3B5 (antibody, V domains shown, Mouse hybridoma mAb) VH: EVKLVESGGGLVKPGGSLKLSCAASGFTFSSYAMSWVRQTPEKRLEWVASISSGDSTYYLDSVKGRFTISRDNAMNILYLQMSSLRSEDTAVYYCERSGGSAPYWGQGTLVSVSA VL: QIVLTQSPAIMSASPGEMVTISCSASSSVSYMYWYQQKPGSSPKPWIYRTSNLASGVPARFSGSGSGTSYSLTISSMEAEDAATYYCQQYHSFPLTFGAGTKLELK ... 9.10
mouse antibody B9D1D11F8D8 (antibody, V domains shown, Mouse hybridoma mAb) VH: EVKLVESGGGLVKPGGSLKLSCAASGFTFSSYAMSWVRQTPEKRLEWVASISSGDSTYYLDSVKGRFTISRDNARNILYLQVSSLRSEDTAMYYCERSGGSAPYWGQGTLVTVSA VL: QIVLTQSPAIMSASPGDMVTISCSASSSVNYMYWYQQKPGSSPKPWIYRTSNLASGVPARFSGSGSGTSYSLTISSMEAEDAATYYCQQYHSFPLTFGAGTKLELK ... 9.13
mouse antibody C2B2F7B7 (antibody, V domains shown, Mouse hybridoma mAb) VH: EVQLVESGGGLVQPGGSLKLSCAASGFTFSTYGMSWVRQTPDKRLELVATINSNGGSTNYPDSVKGRFTISRDNAKNTLYLQMSSLKSEDTAMYYCARFFRIRNAMDYWGQGTSVTVSS VL: DIQMTQSPASLSASVGETVTITCRASENIYSYLAWYQQKQGKSPQFLVYNAKTLAEGVPSRFSGSGSGTQFSLKINSLQPEDFGSYYCQHYYGTPTWTFGGGTKLEIK ... 9.40

QUERY: Dear colleague, I am looking for the recorded pIC50 of the following binder: mouse antibody C2C1A1A1 (antibody, V domains shown, Mouse hybridoma mAb; also called Mouse C2C1A1A1) VH: EVQLVESGGGLVQPGGSLKLSCAASGFTFSTYGMSWVRQTPDKRLELVATINSNGGSTSYPDSVKGRFTISRDNAKNTLYLQMSSLKSEDTAMFYCARFFRFRNAMDYWGQGTSVTVSS VL: DIQMTQSPASLSASVGETVTITCRTSENIYSYLAWYQQKQGKSPQFLVYNAKTLAEGVPSRFSGSGSGTQFSLNINSLQSEDFGSYYCQHYYGPPTWTFGGGTKLEIK
RESULT: 9.36
